test: chemical genetic growth profiling, strain panel (AID 1159580);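 note: tested at 20 µM; growth read once vehicle control cultures reached saturation at 30 °C; 1 = growth at the plate median or of vehicle wells; lower values mean less growth of the strain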; settings: S. cerevisiae deletion strains, growth OD, locus YMR129W, hits give low values
Among all 5,500 compounds or so, about 2,000 (36%) were called active. Another 18% or so got no clear call; they are omitted. The list shows a part of the results.
Each entry below carries its recorded normalized growth.
Field format: numeric only.

Consider the reported normalized growth for these compounds:
Compound | Measurement
CNC(=O)O/N=C(\C)SC | 0.999
CC(=O)O[C@H]1C[C@@H](OC(C)=O)C(C)(C)C2CC(=O)[C@]3(C)C(CC[C@@]4(C)[C@H](C(=O)O)OC(=O)C5OC543)[C@]21C (stereo not given in full) | 0.976
O=C(O)c1cc2cc(F)ccc2[nH]1 | 0.982

[ask] State the recorded normalized growth for this entry: OCC(O)CN1CCN(c2ccccc2)CC1 (stereo not given)
[reply] 0.981

[ask] Follow-up entry: COc1ccc(CN(CCN(C)C)c2ccccn2)cc1
[reply] 1.01
